# target: Tumor Necrosis Factor-alpha (TNF-α)
# Sequence (P01375 77-233): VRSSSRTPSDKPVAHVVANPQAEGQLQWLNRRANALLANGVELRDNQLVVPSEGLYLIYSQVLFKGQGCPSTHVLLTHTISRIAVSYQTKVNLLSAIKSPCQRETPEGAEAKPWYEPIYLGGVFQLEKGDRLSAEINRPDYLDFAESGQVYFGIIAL
# assaySummary: SPR kinetic fits of several sensorgrams
observationType: pKd
Scale for pKd: -log10 of concentration given in mol/L; no unit attached.

What does the data say about its pKd? Entry: FERSYLKMPWKFLQSRQGSC (modifications not checked) [TNF1-opt (D4S+P5Y+M7K+S11K quadruple mutant of TNF1)] 6.15
